- TARGET OR SYSTEM: Mu-type opioid receptor (Homo sapiens);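 further: U2OS cells expressing OPRM1 and beta-arrestin as split beta-galactosidase partners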
- Sequence (P35372 whole entry): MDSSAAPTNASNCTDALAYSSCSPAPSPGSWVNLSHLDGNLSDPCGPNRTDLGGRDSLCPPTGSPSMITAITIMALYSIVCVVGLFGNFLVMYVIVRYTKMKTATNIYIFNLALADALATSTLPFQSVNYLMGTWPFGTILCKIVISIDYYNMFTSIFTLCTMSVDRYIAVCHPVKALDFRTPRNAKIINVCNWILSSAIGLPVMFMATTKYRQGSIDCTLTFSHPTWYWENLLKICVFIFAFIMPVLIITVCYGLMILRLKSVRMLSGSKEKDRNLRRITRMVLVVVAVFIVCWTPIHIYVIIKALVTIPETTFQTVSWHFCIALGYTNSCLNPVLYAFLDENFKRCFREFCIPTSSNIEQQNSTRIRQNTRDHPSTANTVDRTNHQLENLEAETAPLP
- METHOD DESCRIPTION: Counterscreen for agonists of heterodimerization of the mu 1 (OPRM1) and delta 1 (OPRD1) opioid receptors: Luminescence-based cell-based high throughput dose response assay to identify agonists of OPRM1 homodimerization.
- Type: functional
Counter-ions that a name gives are not always drawn. Activity calls are given as the source filed them.
EXPERIMENTAL ENDPOINT: EC50

In [3]: df
Out[3]:
                                   compound            reported
0  c1ccc(C2(N3CCCCC3)CCCCC2)cc1 [PHENCYCLIDINE HYDROCHLORIDE]    6.29 µM (active)
1    C/C(=N/Nc1ccnc2cc(Cl)ccc12)c1ccc(N)cc1  54.7 µM (inactive)
2  Cc1ccccc1[N+]1=C2SCCN2C(O)(c2ccccc2)C1 (stereo not given)  18.7 µM (inactive)

input: State, for Mu-type opioid receptor (Homo sapiens), measured EC50 of the compound listed here: O=c1c2ccc(Cl)cc2[nH]c(=S)n1Cc1cccnc1
output: 65.6 µM (inactive)

input: Under Mu-type opioid receptor (Homo sapiens), report EC50 for CN(C)C(CNC(=O)c1ccc(C(F)(F)F)cc1)c1ccco1 (stereo not given)
output: > 92.4 µM (inactive)

* * *

- TARGET OR SYSTEM: Insulin-degrading enzyme (Homo sapiens, UniProt P14735)
- Sequence (P14735 whole entry): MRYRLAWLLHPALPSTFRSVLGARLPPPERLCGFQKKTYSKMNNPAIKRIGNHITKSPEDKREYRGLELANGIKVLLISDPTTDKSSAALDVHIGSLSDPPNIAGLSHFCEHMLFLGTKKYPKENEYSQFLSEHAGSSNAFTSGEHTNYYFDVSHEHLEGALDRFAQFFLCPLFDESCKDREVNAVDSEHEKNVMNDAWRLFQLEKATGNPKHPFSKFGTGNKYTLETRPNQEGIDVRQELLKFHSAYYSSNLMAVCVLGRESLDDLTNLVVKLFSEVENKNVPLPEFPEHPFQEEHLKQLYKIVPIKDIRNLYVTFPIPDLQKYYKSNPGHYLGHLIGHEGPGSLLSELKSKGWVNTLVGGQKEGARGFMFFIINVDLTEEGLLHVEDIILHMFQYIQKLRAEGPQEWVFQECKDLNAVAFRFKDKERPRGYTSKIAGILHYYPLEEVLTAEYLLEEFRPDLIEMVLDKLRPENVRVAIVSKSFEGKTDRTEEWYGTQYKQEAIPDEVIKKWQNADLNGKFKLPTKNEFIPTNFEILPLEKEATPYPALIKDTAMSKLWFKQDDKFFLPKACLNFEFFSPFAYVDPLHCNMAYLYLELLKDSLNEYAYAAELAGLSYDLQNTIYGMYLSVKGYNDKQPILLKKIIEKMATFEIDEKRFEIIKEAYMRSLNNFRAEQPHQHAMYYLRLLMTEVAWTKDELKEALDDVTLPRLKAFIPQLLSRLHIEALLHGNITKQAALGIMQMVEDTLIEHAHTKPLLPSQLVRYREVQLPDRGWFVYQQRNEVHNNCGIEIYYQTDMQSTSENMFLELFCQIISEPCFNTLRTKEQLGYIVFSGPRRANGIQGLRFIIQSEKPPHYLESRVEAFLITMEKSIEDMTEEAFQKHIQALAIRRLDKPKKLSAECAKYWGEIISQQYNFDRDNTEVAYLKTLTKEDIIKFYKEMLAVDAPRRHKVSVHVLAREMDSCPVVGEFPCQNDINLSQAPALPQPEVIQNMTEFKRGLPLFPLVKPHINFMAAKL
- METHOD DESCRIPTION: activators of recombinant IDE enzyme, dose response, counter-screen for IDE activator project, biochemical, fluorescence polarization (AID 588681)
Active and inactive are the calls of the source.
EXPERIMENTAL ENDPOINT: EC50

Take a look at these entries with their results.
                                   compound              reported
0  CCN1CCN(CCNC(=O)c2ccc(/C=C3/Sc4ccccc4N(Cc4cccc(C)c4)C3=O)cc2)CC1  > 54.7 µM (inactive)
1  O=C(NS(=O)(=O)Nc1ccccc1)C1=C(N2CCCC2)COC1=O  > 54.7 µM (inactive)
2  COc1ccc(/C=C2\Oc3cc(OCC(=O)N4CCC(C(=O)O)CC4)ccc3C2=O)c(OC)c1OC      33 µM (inactive)
3  CC1CN(S(=O)(=O)c2ccc(C(=O)Nc3nncs3)cc2)CC(C)O1 (stereo not given)  > 54.7 µM (inactive)

With those in mind, consider the next compound.
input: State its EC50 for this compound: CCOc1cc(/C=N/Nc2cc(C)nc(-n3nc(C)cc3C)n2)ccc1O
output: > 54.7 µM (inactive)

* * *

Form field: EC50 (one value per entry).
- METHOD DESCRIPTION: Luminescence Cell-Based Dose Response HTS to Identify Activators of Luciferase Translation or Activity in H4 […] Cells. [Related pubchem assays: 1829 (Project Summary), 1814 (Primary HTS)]
- Assay type: functional
Active and inactive are the calls of the source.

Answered examples (4):
In [3]: df
Out[3]:
                              sample_smiles                 reported
0  Cc1ccc(NC(=O)c2ccc(OC(=O)CCN3C(=O)c4ccccc4C3=O)cc2)cc1         37.8 µM (active)
1  CCCn1c(=O)c2ccccc2n2c(SCc3nc4ccccc4s3)nnc12         29.2 µM (active)
2     COc1ccc2cc(-c3csc(-c4cccnc4)n3)ccc2c1  0.108 µM (inconclusive)
3  Cc1ccc(-c2c(C)s/c(=N\C(=O)c3ccco3)n2C)cc1        < 0.1 µM (active)

Let's switch to this compound now.
input: Quote EC50 reported for CC1=CC(C)(C)N=C(Nc2ccc(C)cc2)S1 please.
output: 12.6 µM (active)
